- target.or.test.system: NOS1, P29475
- Sequence (P29475 9-101): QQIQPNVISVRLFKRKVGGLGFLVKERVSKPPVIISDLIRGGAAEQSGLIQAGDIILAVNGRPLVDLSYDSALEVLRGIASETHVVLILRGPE
- experimental.protocol: holdup assay
- Design: key: below the threshold = too weak to quantify, mostly under pKd 3.1 to 4
- setup.conditions: plain residues with an end cap or a label only (N-terminal biotin on a linker: ado-ado)
property.name: pKd

In [3]: df
Out[3]:
                          binder  recorded_value
 0    EIPAQSPTCV [FZD10, Q9ULW2]            4.17
 1    LESTTVGTSV [KARS1, Q15046]            3.86
 2    DGVNEKVSCV [HTR2A, P28223]            3.69
 3  SFISKKEWYV [NECTIN1, Q15223]             3.6
 4    QLSFNTDTLC [ABCA2, Q9BZC7]            3.65
 5      KSRVAFFEEL [NF2, P35240]            3.58
 6   NNNVVKVDSV [MTNR1A, P48039]            3.86
 7  EDPRVEVTQF [SLC22A9, Q8IVM8]            3.63
 8    PPGKHLVTEV [KCNA7, Q96RP8]             3.7
 9   QSYPSKHDYV [CLDN18, P56856]            4.29
10  PYSESDDDWC [CACNA1A, O00555]            3.48
11  VKRNSKETVV [MARCHF3, Q86UD3]            4.03
12   QRPYRRGSEI [KCNJ18, B7U540]            3.56

Entry source: paper PMC9482650
